Listed next: entries and their corresponding protein stability index.
B1: IKZF1 (parent)
chain: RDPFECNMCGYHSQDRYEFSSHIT

- Variants of: B1
- EXPERIMENT_SUMMARY: protein stability index of a GFP-peptide fusion (GPS, HEK-293T) (PSI 1-6); higher = more stable;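 note: lentivirally expressed fusions sorted by FACS into six bins by GFP to DsRed ratio, PSI derived from sequencing read proportions per bin multiplied by bin number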
- COND: c terminus: a fixed tail appended
ENDPOINT_NAME: protein stability index

In [3]: df
Out[3]:
                     residue_string  reported_measurement
 0   RDPFICNMCGYHSQDRYEFSSHIT [E5I]                  2.38
 1  RDPFECNMCFYHSQDRYEFSSHIT [G10F]                  1.81
 2   RDPFEPNMCGYHSQDRYEFSSHIT [C6P]                  2.23
 3   RDPFECNRCGYHSQDRYEFSSHIT [M8R]                  2.02
 4  RDPFECNMCGYHSQDRYEFSSCIT [H22C]                  2.54
 5  RDPFECNMCGYHWQDRYEFSSHIT [S13W]                  2.28
 6  RDPFECNMCGYHSQCRYEFSSHIT [D15C]                  2.32
 7  RDPFECNMCPYHSQDRYEFSSHIT [G10P]                  2.44
 8  RDPFECNMCGYHSQDRYESSSHIT [F19S]                   2.6
 9   QDPFECNMCGYHSQDRYEFSSHIT [R1Q]                  2.55
10  RDPFECNMCGYHSQDRYPFSSHIT [E18P]                  1.67
11   RDPFKCNMCGYHSQDRYEFSSHIT [E5K]                  2.07
12   RDPFECNMRGYHSQDRYEFSSHIT [C9R]                  3.24
13  RDPFECNMCGYHSQDRYEFWSHIT [S20W]                  2.15
14  RDPFECNMCGYHSQDCYEFSSHIT [R16C]                  2.23
15  RDPFECNMCGYHSQDRYEPSSHIT [F19P]                     3
16   RYPFECNMCGYHSQDRYEFSSHIT [D2Y]                  1.77
17  RDPFECNMCGYHSGDRYEFSSHIT [Q14G]                  2.38
18   RDPFECNMFGYHSQDRYEFSSHIT [C9F]                  2.34
19  RDPFECNMCGYISQDRYEFSSHIT [H12I]                     2
20  RDPFECNMCGYHSQDRYEFSSHIV [T24V]                  1.85
21  RDPFECNMCGYNSQDRYEFSSHIT [H12N]                  2.72
22  RDPFECNMCGYHSQDGYEFSSHIT [R16G]                  2.56
23   WDPFECNMCGYHSQDRYEFSSHIT [R1W]                   2.2
24  RDPFECNMCGYHSQDRYEFASHIT [S20A]                  2.13
25   RDPFYCNMCGYHSQDRYEFSSHIT [E5Y]                  1.85
26   ADPFECNMCGYHSQDRYEFSSHIT [R1A]                  2.63
27  RDPFECNMCGIHSQDRYEFSSHIT [Y11I]                  1.86
28  RDPFECNMCWYHSQDRYEFSSHIT [G10W]                  1.73
29  RDPFECNMCGYHSQDRYEFSSHDT [I23D]                  3.32
30  RDPFECNMCGYHCQDRYEFSSHIT [S13C]                  1.74
31  RDPFECNMCGYHTQDRYEFSSHIT [S13T]                   2.1
32   RDKFECNMCGYHSQDRYEFSSHIT [P3K]                  2.04
33  RDPFECNMCGYYSQDRYEFSSHIT [H12Y]                  1.97
34  RDPFECNMCLYHSQDRYEFSSHIT [G10L]                  2.08
35  RDPFECNMCGYHSQDRMEFSSHIT [Y17M]                  2.16
36   RFPFECNMCGYHSQDRYEFSSHIT [D2F]                  1.57
37  RDPFECNMCGAHSQDRYEFSSHIT [Y11A]                  2.58
38   RDPFECNNCGYHSQDRYEFSSHIT [M8N]                  2.54
39  RDPFECNMCQYHSQDRYEFSSHIT [G10Q]                  2.58
40   RAPFECNMCGYHSQDRYEFSSHIT [D2A]                  1.63
41  RDPFECNMCNYHSQDRYEFSSHIT [G10N]                   2.4
42  RDPFECNMCGYHSQDDYEFSSHIT [R16D]                  2.85
43  RDPFECNMCGYWSQDRYEFSSHIT [H12W]                  1.63
44  RDPFECNMCDYHSQDRYEFSSHIT [G10D]                   2.8
45  RDPFECNMCGYHSQDRYEFRSHIT [S20R]                  2.08
46  RDPFECNMCGYHSQDAYEFSSHIT [R16A]                   2.3
47   RDPFEGNMCGYHSQDRYEFSSHIT [C6G]                   2.3
48  RDPFECNMCGYHSQDRYEASSHIT [F19A]                  2.59
49  RDPFECNMCGYHSQDRYEFSEHIT [S21E]                  2.27
50   RRPFECNMCGYHSQDRYEFSSHIT [D2R]                  1.99
51  RDPFECNMCGYHSQDRYGFSSHIT [E18G]                  2.63
52   RDPFECDMCGYHSQDRYEFSSHIT [N7D]                  2.51
53  RDPFECNMCGYHSQDRSEFSSHIT [Y17S]                  2.43
54   RDPFECNLCGYHSQDRYEFSSHIT [M8L]                  2.18
55   RDPFECNQCGYHSQDRYEFSSHIT [M8Q]                  2.21
56   RTPFECNMCGYHSQDRYEFSSHIT [D2T]                  1.82
57  RDPFECNMCGYHSQDRYEFSSYIT [H22Y]                  2.84
58  RDPFECNMCGCHSQDRYEFSSHIT [Y11C]                  2.13
59   RDPFECNMDGYHSQDRYEFSSHIT [C9D]                  3.83
60  RDPFECNMCGYHSQDRYEFSSHID [T24D]                  2.68
61  RDPFECNMCGYHSQDRIEFSSHIT [Y17I]                  2.16
62   RDPMECNMCGYHSQDRYEFSSHIT [F4M]                   2.4
63  RDPFECNMCGYHDQDRYEFSSHIT [S13D]                  2.49
64   RDHFECNMCGYHSQDRYEFSSHIT [P3H]                  2.59
65  RDPFECNMCGYHSQDYYEFSSHIT [R16Y]                  1.75
66   RDPFECGMCGYHSQDRYEFSSHIT [N7G]                  2.25
67  RDPFECNMCGYHSQDQYEFSSHIT [R16Q]                  2.33
68   RDQFECNMCGYHSQDRYEFSSHIT [P3Q]                  2.18
69  RDPFECNMCGYHSQDRYEFSSHIY [T24Y]                  1.39
70  RDPFECNMCGYHSQDRYAFSSHIT [E18A]                  1.91
71   RDPFECNMSGYHSQDRYEFSSHIT [C9S]                  3.42
72   RDPFECNICGYHSQDRYEFSSHIT [M8I]                  2.16
73   RDPFECNACGYHSQDRYEFSSHIT [M8A]                  1.81
74  RDPFECNMCGYHVQDRYEFSSHIT [S13V]                  1.91
75  RDPFECNMCGYHSQDRYEFSSHIG [T24G]                  1.74
76   RGPFECNMCGYHSQDRYEFSSHIT [D2G]                  1.95
77   RDPKECNMCGYHSQDRYEFSSHIT [F4K]                  2.77
78   RDPGECNMCGYHSQDRYEFSSHIT [F4G]                  2.68
79  RDPFECNMCGYHSQVRYEFSSHIT [D15V]                   1.8
80   RDPFECNHCGYHSQDRYEFSSHIT [M8H]                  2.17
81  RDPFECNMCGYHSQDRYEFSSHYT [I23Y]                  1.82
82  RDPFECNMCHYHSQDRYEFSSHIT [G10H]                  2.33
83  RDPFECNMCGYHSQDRYEFVSHIT [S20V]                  2.16
84   RCPFECNMCGYHSQDRYEFSSHIT [D2C]                  2.19
85   RDPFECNMHGYHSQDRYEFSSHIT [C9H]                  2.63
86   RDPLECNMCGYHSQDRYEFSSHIT [F4L]                  2.17
87  RDPFECNMCGYHSQDRYEKSSHIT [F19K]                  3.06
88  RDPFECNMCGYHSQDRYEFSSDIT [H22D]                   2.7
89  RDPFECNMCGYHSQDRYEFTSHIT [S20T]                  2.04
90   RDPFSCNMCGYHSQDRYEFSSHIT [E5S]                  1.33
